- Tested on: 485176-168-R4-J1-PDC spheroids with HUVEC/MSC, viability;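 note: spheroids exposed to compounds for seven days before readout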
- measurement description: Anticancer human tumor 485176-168-R4-J1-PDC patient-derived pancreatic adenocarcinoma cell line growth inhibition [GQUAD]; active = viability on the fitted dose curve at most 10% of control; inactive = the rest
- experimental setup: second compound 0.1 µM; first compound 10 µM
Labels: True (active), False (inactive)

compound	system	category label
COc1cccc2c1C(=O)c1c(O)c3c(c(O)c1C2=O)CC(O)(C(=O)CO)CC3OC1CC(N)C(O)C(C)O1 (centres undefined) + Cc1cnc(CNC(=O)c2c(=O)c3ccc(N4CCCN(C)CC4)nc3n3c2sc2ccccc23)cn1	485176-168-R4-J1-PDC spheroids with HUVEC/MSC, viability	True
CC1COCCN1c1cc(C2(S(C)(=N)=O)CC2)nc(-c2ccnc3[nH]ccc23)n1 (centres undefined) + CN(C)c1ccc(Nc2c3ccc(NC(=O)CCN4CCCC4)cc3nc3cc(NC(=O)CCN4CCCC4)ccc23)cc1	485176-168-R4-J1-PDC spheroids with HUVEC/MSC, viability	False
C=CCn1c(=O)c2cnc(Nc3ccc(N4CCN(C)CC4)cc3)nc2n1-c1cccc(C(C)(C)O)n1 + Cc1[nH]c2ccc(F)cc2c1-c1nc2c3cccnc3c3ncccc3c2[nH]1	485176-168-R4-J1-PDC spheroids with HUVEC/MSC, viability	True
O=C(NO)c1cnc(N2CCN(S(=O)(=O)c3ccc4ccccc4c3)CC2)nc1 + Cc1cnc(CNC(=O)c2c(=O)c3ccc(N4CCCN(C)CC4)nc3n3c2sc2ccccc23)cn1	485176-168-R4-J1-PDC spheroids with HUVEC/MSC, viability	True
